Entries and their melting point

Recorded melting point, per entry:
CCNC(=O)Nc1ccc(-c2sc3c(c2CN(C)CCCC(=O)OCC)c(=O)n(-c2ccccc2)c(=O)n3Cc2c(F)cccc2F)cc1 203 to 204 °C
CCNC(=O)Nc1ccc(-c2sc3c(c2CN(C)CCNC(C)=O)c(=O)n(-c2ccccc2)c(=O)n3Cc2c(F)cccc2F)cc1 185 to 186 °C
CCNC(=O)Nc1ccc(-c2sc3c(c2CN(C)CCC(=O)N(C)C)c(=O)n(-c2ccc(F)cc2)c(=O)n3Cc2c(F)cccc2F)cc1 210 to 212 °C

Fill in: melting point of "CCNC(=O)Nc1ccc(-c2sc3c(c2CN(C)CCN(C)C(C)=O)c(=O)n(-c2ccccc2)c(=O)n3Cc2c(F)cccc2F)cc1" is ___
180 to 181 °C

Which value of melting point has been reported for "CCNC(=O)Nc1ccc(-c2sc3c(c2CNCCOC)c(=O)n(-c2ccccc2)c(=O)n3Cc2c(F)cccc2F)cc1" in the records?
221 to 223 °C
